Origin of measurements: PubChem BioAssay (NCI)

# TGI values compiled below
# System: CCRF-CEM leukemia
# TEST_DESCRIPTION: NCI tumour cell line growth inhibition, 48 h

MOLECULE	TGI
CS(=O)(=O)N(CCC#N)c1ccc(/C=N/NC(=O)CC(=O)Nc2cccc(Cl)c2)cc1	> 100 µM
O=C(Nc1c(Cl)cc([N+](=O)[O-])cc1Cl)C(=O)C1C(=O)NC(=S)NC1=O	> 100 µM
COc1ccc(-c2nsc3c2NC(=O)CC3c2ccc3c(c2)OCO3)cc1 (configuration not stated)	8.49 µM
C[N+](C)([O-])CCCNc1c2ccccc2nc2cccc([N+](=O)[O-])c12	1.96 µM
Cc1nccn1S(=O)(=O)c1ccc(Br)cc1Br	98.3 µM
CN(C)c1ccc(C(=O)c2ccc(N(C)C)c(N)c2)cc1N	> 100 µM
CCOC(=O)CCc1c(C(=O)OCC)[nH]c(/C=C2\NC(=O)C(C)=C2CC)c1C	> 100 µM
C=C1C(=O)O[C@H]2[C@H]1CC/C(CNS(=O)(=O)c1ccc3ccccc3c1)=C\CC[C@@]1(C)O[C@@H]21	2.31 µM
Cc1cc2c(cc1C)[n+](=O)c(C(=O)/C=C/c1ccc(Cl)cc1)c(C)n2[O-]	> 100 µM
Nc1ccc(N=Nc2ccccc2)c(N)n1	> 100 µM
CCOC(=O)C(=O)C1C(=O)Nc2ccccc21 (configuration not stated)	> 100 µM
COc1ccc(C(O)c2cc3c(N)c(C(=O)Nc4cccc(Cl)c4C)sc3nc2C)cc1 (configuration not stated)	1.93 µM
CN1C/C(=C\c2ccc(Cl)cc2)C(=O)/C(=C/c2ccc(Cl)cc2)C1	1.37 µM
Nc1ccccc1NC(=O)CCCCCCC(=O)Nc1ccc2c(c1)/C(=C/c1ccc[nH]1)C(=O)N2	> 100 µM
CCNc1c(C(=O)N(CC)CC)c(=O)[nH]c2ncccc12	> 100 µM
COc1ccc(Nc2ncccc2/C=C/C(=O)c2cc(OC)c(OC)c(OC)c2)cc1	> 100 µM
OCC(O)C1OC2CC1Nc1ccccc1N2 (configuration not stated)	> 100 µM
O=C1CCCC2=C1C(c1ccc3c(c1)OCO3)Nc1ccc3ccccc3c12 (configuration not stated)	> 100 µM
COc1cccc2c1C1(O)C2CCCC12OCCCO2 (configuration not stated)	> 100 µM
N#CC(C#N)=Cc1c(O)ccc2ccccc12	5.17 µM
O=CN1N=C(c2ccc(Nc3ccnc4cc(Cl)ccc34)cc2)CC1c1ccccc1 (configuration not stated)	8.55 µM
CC(C)COC(=O)N1N=NC2C3OC(CC3=O)C21 (configuration not stated)	> 100 µM
OCCN(CCO)c1cccc(N(CCO)CCO)c1	> 100 µM
CCCCCCCCCCCCCCCC(=O)OCC1OC(n2cnc3c(=S)nc(N)[nH]c32)C(OC(=O)CCCCCCCCCCCCCCC)C1OC(=O)CCCCCCCCCCCCCCC (configuration not stated)	> 50 µM
O=C(OCCN1CCCCC1)C(c1ccccc1)C1(O)CCSCC1 (configuration not stated)	> 100 µM
CN(C)/C=C/c1nnnn1-c1ccc(Cl)cc1	42.4 µM
O=c1[nH]c(=O)n(COCc2ccccc2)c2ccc(Br)cc12	> 100 µM
